- study-system: [V390I/Y410E/E274V]-CfEcR (Choristoneura fumiferana, UniProt O77240)
- Construct: assay construct b835
- Assay type: cell-based
- measurement-setup: R, 3T3 Cells
pEC50: −log10 of the molar value.
Provide the reported pEC50 of each item.

// pEC50 value for Cc1cc(C)cc(C(=O)N(NC(=O)OCc2ccccc2)[C@H](CCCO)C(C)(C)C)c1 [Example 64] : ~5.10

get_value(item= CCC[C@@H](N(NC(=O)c1ccc2ccccc2c1)C(=O)c1cc(C)cc(C)c1)C(C)(C)C [Example 24] , readout=pEC50) returns ~7.70

Consider CCC[C@@H](N(NC(=O)c1ccc(Cl)nc1)C(=O)c1cc(C)cc(C)c1)C(C)(C)C [Example 28] . Its measured pEC50 is ~7.70

Reported pEC50 ( CCC[C@@H](N(NC(=O)c1ccccc1OC)C(=O)c1cc(C)cc(C)c1)C(C)(C)C [Example 4] ) = 7.00

molecule CCC[C@@H](N(NC(=O)c1cccc(OC)c1C)C(=O)c1cc(C)cc(C)c1)C(C)(C)C [Example 29] , pEC50 observed: 10.11

Noted for CCC[C@@H](N(NC(=O)c1cccc2ccccc12)C(=O)c1cc(C)cc(C)c1)C(C)(C)C [Example 23] : its pEC50 reads ~8.00

Lookup result for C=CC[C@@H](N(NC(=O)OCc1ccccc1)C(=O)c1cc(C)cc(C)c1)C(C)(C)C [Example 1.5] ; measured pEC50: ~5.70

For CCC[C@@H](N(NC(=O)c1cc(C)oc1C)C(=O)c1cc(C)cc(C)c1)C(C)(C)C [Example 26] the molecule record lists pEC50 as 7.00
